- Target Of Assay: cynomolgus DLL3 protein (cynomolgus)
- Sequence (chain, as listed by the source): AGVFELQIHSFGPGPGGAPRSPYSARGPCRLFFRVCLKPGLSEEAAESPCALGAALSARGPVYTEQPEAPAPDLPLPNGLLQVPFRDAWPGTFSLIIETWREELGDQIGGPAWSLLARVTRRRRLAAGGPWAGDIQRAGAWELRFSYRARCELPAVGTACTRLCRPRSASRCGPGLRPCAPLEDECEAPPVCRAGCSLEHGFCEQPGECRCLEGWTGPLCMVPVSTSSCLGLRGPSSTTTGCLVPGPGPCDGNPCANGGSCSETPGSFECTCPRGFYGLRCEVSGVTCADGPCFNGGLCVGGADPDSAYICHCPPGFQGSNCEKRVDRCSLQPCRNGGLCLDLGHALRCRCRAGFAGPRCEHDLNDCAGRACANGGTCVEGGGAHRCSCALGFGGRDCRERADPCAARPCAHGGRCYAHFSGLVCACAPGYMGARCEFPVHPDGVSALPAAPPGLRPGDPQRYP
- Assay Name: Octet, single concentration of trispecific (60 nM), cynomolgus DLL3
Answer each item with its documented Kd.
Express the result in nM but write the number alone.

Entry anti-DLL3 trispecific protein, DLL3 binder 4H011 (protein, part only; not given: CD3 fragment and albumin sdAb, part only) chain, part: EVQLVESGGGLVQPGGSLTLSCAASGSSVSRLSMAWYRQAPGKKRELVAGISVDGSTDYIDSVKGRFTISRDNAKNSVYLQMNSLRAEDTAVYYCYAYRWTTRLTYWGQGTLVTVSSGGGGSGGGSGGGGSGGGSHHHHHH : reported Kd = ?
5.7

What about this binder? anti-DLL3 trispecific protein, DLL3 binder 3A02 (protein, part only; not given: CD3 binder and albumin binder, part only) chain, part: EVQLVESGGGLVQPGGSLTLSCAASGSSVSFLSLAWYRQAPGKKRELVAGISADGSTAYIDSVKGRFTISRDNAKNSVYLQMNSLRAEDTAVYYCYAYRWRTRYTYWGQGTLVTVSSGGGGSGGGSGGGGSGGGSHHHHHH
9.5

Note, next up: anti-DLL3 trispecific protein, DLL3 binder 2H02 (protein, part only; not given: anti-CD3 fragment and anti-albumin domain, part only) chain, part: EVQLVESGGGLVQPGGSLTLSCVASGSTSSINAMAWYRRAPGKQRELAAGISSDGSKVYADSVKGRFTISRDNAKNSVYLQMNSLRAEDTAVYYCYYFHTVSGSSMRYWGQGTLVTVSSGGGGSGGGSGGGGSGGGSHHHHHH
5.2
